- Tested system: Dipeptidyl peptidase II and dipeptidyl peptidase IV (DPP2 and DPP4) (Homo sapiens) (UniProt P27487+Q9UHL4)
- Assay method text: Ratio of IC50 for DPP IV to that of IC50 for DPP II
- Type: protein assay
Test readout: SI
One number for each entry.

As a guide, the following entries are already answered.
>>> observed_measurement("N[C@@H](CCNCc1ccc(OCc2ccccc2)cc1)C(=O)N1CCCCC1")
470000
>>> observed_measurement("N#CC1CCCCN1C(=O)[C@@H](N)CCNCc1ccccc1 (stereo partly specified)")
17000
>>> observed_measurement("N[C@@H](CCNCc1cccc2ccccc12)C(=O)N1CCCCC1")
230000

Now look at this one.
Return reported SI. Input molecule: `N[C@@H](CCNCc1ccc(Cl)cc1)C(=O)N1CCCCC1` 340000

Origin of values: ChEMBL document CHEMBL1148463
